Test system: mushroom tyrosinase
Assay: Mushroom tyrosinase assay with L-dopa
Type: biochemical
Conditions: test compound 100 μM; percent of untreated control reaction
Mushroom Tyrosinase at 100 μM (% of control) by entry:
reported_endpoint: Mushroom Tyrosinase at 100 μM (% of control)

compound | test_target | assay_value
CC(C)CC(C(=O)NC1CCCC1)N(C(=O)c1snc(C(N)=O)c1N)c1ccc(F)cc1 (stereo not drawn) | mushroom tyrosinase | 100.6% of control
Oc1nc2cc(I)c(I)cc2o1 [5,6-diiodobenzo[d]oxazol-2-ol] | mushroom tyrosinase | 99.3% of control
CC(C)CC(C(=O)NC1CCCC1)N(C(=O)c1snc(C(N)=O)c1N)c1cccc(F)c1 (stereo not drawn) | mushroom tyrosinase | 105.2% of control
